Test system: Acinetobacter baumannii
Assay: Antibacterial activity against Acinetobacter baumannii ATCC 19606 110
Assay type: functional
Readout type: MIC (µg/mL)
Dear colleague, please return just the value in µg/mL, with no unit written.

For orientation, consider the following solved cases.
CC(C)NCC(=O)Nc1cc(F)c2c(c1O)C(=O)C1=C(O)[C@]3(O)C(=O)C(C(N)=O)=C(O)[C@@H](N(C)C)[C@@H]3C[C@@H]1C2 | 1
CN(C)[C@@H]1C(O)=C(C(N)=O)C(=O)[C@@]2(O)C(O)=C3C(=O)c4c(O)c(NC(=O)CN5CC[C@@H](O)C5)cc(F)c4C[C@H]3C[C@@H]12 | 32
CN(C)[C@@H]1C(O)=C(C(N)=O)C(=O)[C@@]2(O)C(O)=C3C(=O)c4c(O)c(NC(=O)CN5Cc6ccccc6C5)cc(F)c4C[C@H]3C[C@@H]12 | 0.125
CN(C)[C@@H]1C(O)=C(C(N)=O)C(=O)[C@@]2(O)C(O)=C3C(=O)c4c(O)cccc4[C@@](C)(O)[C@H]3C[C@@H]12 [TETRACYCLINE] | 1
CN(C)[C@@H]1C(O)=C(C(N)=O)C(=O)[C@@]2(O)C(O)=C3C(=O)c4c(O)c(NC(=O)CN5CC6CCCC6C5)cc(F)c4C[C@H]3C[C@@H]12 (some centres not stated) | 0.06
CN(C)c1cc(NC(=O)CNC(C)(C)C)c(O)c2c1C[C@H]1C[C@H]3[C@H](N(C)C)C(O)=C(C(N)=O)C(=O)[C@@]3(O)C(O)=C1C2=O [TIGECYCLINE] | 0.5
CN(C)[C@@H]1C(O)=C(C(N)=O)C(=O)[C@@]2(O)C(O)=C3C(=O)c4c(O)c(NC(=O)CN5CC[C@@H](F)C5)cc(F)c4C[C@H]3C[C@@H]12 | 0.25
CN(C)[C@@H]1C(O)=C(C(N)=O)C(=O)[C@@]2(O)C(O)=C3C(=O)c4c(O)c(NC(=O)CN5CCOCC5)cc(F)c4C[C@H]3C[C@@H]12 | 8

Input line: Sample CN(C)[C@@H]1C(O)=C(C(N)=O)C(=O)[C@@]2(O)C(O)=C3C(=O)c4c(O)c(NC(=O)CN5CCCCC5)cc(F)c4C[C@H]3C[C@@H]12 — what was its MIC?
Output line: 0.125

The reported numbers originate from ChEMBL document CHEMBL1949621.
